# Tested on: SULT2A1
# MEASUREMENT PROTOCOL: SULT2A1 enzyme activity assay: sulfate conjugation of DHEA with 35S-PAPS, COS-1 cytosol preparations of recombinant allozymes
# Assay type: biochemical, human
# CONDITION: ratio of enzymatic activity to immunoreactive protein
Lab note: compare Enzyme activity: immunoreactive protein against 2. Equal or greater, write t. Smaller, write f.

Ala261Thr: SULT2A1 allozyme having a threonine at amino acid 261 in place of an alanine (protein) MSDDFLWFEGIAFPTMGFRSETLRKVRDEFVIRDEDVIILTYPKSGTNWLAEILCLMHSKGDAKWIQSVPIWERSPWVESEIGYTALSESESPRLFSSHLPIQLFPKSFFSSKAKVIYLMRNPRDVLVSGYFFWKNMKFIKKPKSWEEYFEWFCQGTVLYGSWFDHIHGWMPMREEKNFLLLSYEELKQDTGRTIEKICQFLGKTLEPEELNLILKNSSFQSMKENKMSNYSLLSVDYVVDKAQLLRKGVSGDWKNHFTVTQAEDFDKLFQEKMADLPRELFPWE = f
WT: recombinant wild type (reference) human SULT2A1 polypeptide, SEQ ID NO:3, expressed in COS-1 cells (protein, listed as Homo Sapiens) MSDDFLWFEGIAFPTMGFRSETLRKVRDEFVIRDEDVIILTYPKSGTNWLAEILCLMHSKGDAKWIQSVPIWERSPWVESEIGYTALSESESPRLFSSHLPIQLFPKSFFSSKAKVIYLMRNPRDVLVSGYFFWKNMKFIKKPKSWEEYFEWFCQGTVLYGSWFDHIHGWMPMREEKNFLLLSYEELKQDTGRTIEKICQFLGKTLEPEELNLILKNSSFQSMKENKMSNYSLLSVDYVVDKAQLLRKGVSGDWKNHFTVAQAEDFDKLFQEKMADLPRELFPWE = f
63Pro/261Thr: SULT2A1 polypeptide with a proline at position 63 and a threonine at position 261 (double variant) (protein, UniProt Q06520 1-285, looked up, variant A63P A261T) Sulfotransferase 2A1: MSDDFLWFEGIAFPTMGFRSETLRKVRDEFVIRDEDVIILTYPKSGTNWLAEILCLMHSKGDPKWIQSVPIWERSPWVESEIGYTALSETESPRLFSSHLPIQLFPKSFFSSKAKVIYLMRNPRDVLVSGYFFWKNMKFIKKPKSWEEYFEWFCQGTVLYGSWFDHIHGWMPMREEKNFLLLSYEELKQDTGRTIEKICQFLGKTLEPEELNLILKNSSFQSMKENKMSNYSLLSVDYVVDKAQLLRKGVSGDWKNHFTVTQAEDFDKLFQEKMADLPRELFPWE = f

input: hey, is Enzyme activity: immunoreactive protein for this one >= 2? Lys227Glu: SULT2A1 allozyme having a glutamate at amino acid residue 227 in place of a lysine (protein, UniProt Q06520 1-285, looked up, variant K227E) Sulfotransferase 2A1: MSDDFLWFEGIAFPTMGFRSETLRKVRDEFVIRDEDVIILTYPKSGTNWLAEILCLMHSKGDAKWIQSVPIWERSPWVESEIGYTALSETESPRLFSSHLPIQLFPKSFFSSKAKVIYLMRNPRDVLVSGYFFWKNMKFIKKPKSWEEYFEWFCQGTVLYGSWFDHIHGWMPMREEKNFLLLSYEELKQDTGRTIEKICQFLGKTLEPEELNLILKNSSFQSMKENEMSNYSLLSVDYVVDKAQLLRKGVSGDWKNHFTVAQAEDFDKLFQEKMADLPRELFPWE
output: t

input: hey, is Enzyme activity: immunoreactive protein for this one >= 2? Ala63Pro: SULT2A1 allozyme having a proline at amino acid residue 63 in place of alanine (protein, UniProt Q06520 1-285, looked up, variant A63P) Sulfotransferase 2A1: MSDDFLWFEGIAFPTMGFRSETLRKVRDEFVIRDEDVIILTYPKSGTNWLAEILCLMHSKGDPKWIQSVPIWERSPWVESEIGYTALSETESPRLFSSHLPIQLFPKSFFSSKAKVIYLMRNPRDVLVSGYFFWKNMKFIKKPKSWEEYFEWFCQGTVLYGSWFDHIHGWMPMREEKNFLLLSYEELKQDTGRTIEKICQFLGKTLEPEELNLILKNSSFQSMKENKMSNYSLLSVDYVVDKAQLLRKGVSGDWKNHFTVAQAEDFDKLFQEKMADLPRELFPWE
output: t
